Can you tell me Blackgrass plant response rating for the items I'm about to list?
# System: blackgrass
# Assay Notes: Test B pre/postemergence blackgrass
# Assay type: in vivo, Alopecurus myosuroides
# Measurement Parameters: Rate 500 g/ha, Postemergence; scale 0 to 10, 0 no effect, 10 complete control
# Procedure: […] At the same time, these crop and weed species were also treated with postemergence applications of test chemicals formulated in the same manner. […] Treated plants and controls were maintained in a greenhouse for twelve to sixteen days, after which all species were compared to controls and visually evaluated. […]
Give your answer as a number; write no unit.

Lab note: measured Blackgrass plant response rating of CC(C)N(C(=O)n1oc(=O)n(Cc2ccccc2)c1=O)c1ccc(F)cc1 [Compound 78] was 7

Lab note: measured Blackgrass plant response rating of CCOC(=O)C(C)N(C(=O)n1oc(=O)n(CC)c1=O)c1ccc(F)cc1 (centres unmarked) [Compound 248] was 0

Lab note: measured Blackgrass plant response rating of Cc1cccc(C(C)C)c1-n1c(=O)on(C(=O)N(c2ccc(F)cc2)C(C)C)c1=O [Compound 65] was 0

Lab note: measured Blackgrass plant response rating of CC(C)N(C(=O)n1oc(=O)n(-c2cccnc2)c1=O)c1ccc(F)cc1 [Compound 234] was 0

Lab note: measured Blackgrass plant response rating of CC(C)N(C(=O)n1oc(=O)n(-c2cccc3c2CCCC3)c1=O)c1ccc(F)cc1 [Compound 90] was 0

Lab note: measured Blackgrass plant response rating of CC(C)N(C(=O)n1oc(=O)n(-c2cccnc2)c1=O)c1ccccc1 [Compound 235] was 0

Lab note: measured Blackgrass plant response rating of CCCn1c(=O)on(C(=O)N(c2ccccc2)C(C)C)c1=O [Compound 92] was 8

Lab note: measured Blackgrass plant response rating of CCc1ccc(N(C(=O)n2oc(=O)n(-c3ccccc3C)c2=O)C(C)C)cc1 [Compound 230] was 0

###

# Tested on: wheat
# Assay Notes: Test B pre/postemergence wheat
# Format: in vivo, Triticum aestivum
# Measurement Parameters: Preemergence, Rate 125 g/ha; scale of 0 to 10 where 0 is no effect and 10 is complete control
Can you tell me Wheat plant response rating for the items I'm about to list?
Give your answer as a number; write no unit.

Lab note: measured Wheat plant response rating of C#CC(C=C(C)C)n1c(=O)on(C(=O)N(c2ccccc2)C(C)C)c1=O (stereo not shown) was 0

Lab note: measured Wheat plant response rating of CC(C)N(C(=O)n1oc(=O)n(CCC(F)(F)F)c1=O)c1ccccc1 was 0

Lab note: measured Wheat plant response rating of CC(C)N(C(=O)n1oc(=O)n(CC2=NOCCC2)c1=O)c1ccc(F)cc1F was 0

Lab note: measured Wheat plant response rating of COCCn1c(=O)on(C(=O)N(c2ccccc2)C(C)C)c1=O was 3

###

# Test system: morningglory
# Assay Notes: Test B pre/postemergence morningglory
# Format: in vivo, Ipomoea hederacea
# Measurement Parameters: Preemergence, Rate 500 g/ha; scale of 0 to 10 where 0 is no effect and 10 is complete control
Measurement Type: Plant response rating, Morningglory
Give your answer as a number; write no unit.

Lab note: measured Plant response rating, Morningglory of CC(C)N(C(=O)n1oc(=O)n(CC2=NOCCC2)c1=O)c1ccc(F)cc1F [Compound 602] was 0

Lab note: measured Plant response rating, Morningglory of CC(C)N(C(=O)n1oc(=O)n(CC(=O)C2CC2)c1=O)c1ccc(Cl)cc1 [Compound 639] was 0

Lab note: measured Plant response rating, Morningglory of CC(C)N(C(=O)n1oc(=O)n(CC(=O)C(F)(F)F)c1=O)c1ccc(F)cc1F [Compound 598] was 0

Lab note: measured Plant response rating, Morningglory of CC(C)N(C(=O)n1oc(=O)n(-c2cccnc2)c1=O)c1ccccc1 [Compound 235] was 0

Lab note: measured Plant response rating, Morningglory of CCOP(=O)(OCC)C(C)n1c(=O)on(C(=O)N(c2ccc(F)cc2)C(C)C)c1=O (centres unmarked) [Compound 617] was 0

Lab note: measured Plant response rating, Morningglory of CCc1ccc(N(C(=O)n2oc(=O)n(-c3ccccc3C)c2=O)C(C)C)cc1 [Compound 230] was 2

Lab note: measured Plant response rating, Morningglory of CC(C)N(C(=O)n1oc(=O)n(-c2cccnc2)c1=O)c1ccc(F)cc1 [Compound 234] was 0

Lab note: measured Plant response rating, Morningglory of CCOC(=O)C=CCn1c(=O)on(C(=O)N(c2ccc(F)cc2)C(C)C)c1=O [Compound 214] was 0

Lab note: measured Plant response rating, Morningglory of CC(C)=CCCC(C)=CCn1c(=O)on(C(=O)N(c2ccc(F)cc2)C(C)C)c1=O [Compound 262] was 0

Lab note: measured Plant response rating, Morningglory of COCCn1c(=O)on(C(=O)N(c2ccccc2)C(C)C)c1=O [Compound 631] was 7

Lab note: measured Plant response rating, Morningglory of CC(C)N(C(=O)n1oc(=O)n(CC(=O)C(C)(C)C)c1=O)c1ccc(F)cc1 [Compound 216] was 0

###

# System: bedstraw
# Assay Notes: Test B pre/postemergence bedstraw
# Type: in vivo, Galium aparine
# Measurement Parameters: Rate 250 g/ha, Postemergence; scale of 0 to 10 where 0 is no effect and 10 is complete control
Measurement Type: Plant response rating, Bedstraw

Lab note: measured Plant response rating, Bedstraw of Cc1cccc(C)c1-n1c(=O)on(C(=O)N(C(C)C)C2C=CCCC2)c1=O (stereo not shown) [Compound 273] was 0

Lab note: measured Plant response rating, Bedstraw of CC(C)N(C(=O)n1oc(=O)n(CCCCF)c1=O)c1ccc(Cl)cc1 [Compound 551] was 4

Lab note: measured Plant response rating, Bedstraw of Cc1cccc(C(C)(C)C)c1-n1c(=O)on(C(=O)N(c2ccc(F)cc2)C(C)C)c1=O [Compound 359] was 0

Lab note: measured Plant response rating, Bedstraw of CC(C)N(C(=O)n1oc(=O)n(-c2ccsc2)c1=O)c1ccc(F)cc1 [Compound 272] was 0

###

# System: crabgrass
# Assay Notes: Test B pre/postemergence crabgrass
# Assay type: in vivo, Digitaria sanguinalis
# Measurement Parameters: Preemergence, Rate 500 g/ha; scale of 0 to 10 where 0 is no effect and 10 is complete control
Lab note: anything with Plant response rating, Crabgrass below 8 is marked met; values at 8 or higher are marked not met.

Task: Take the molecule CC(C)N(C(=O)n1oc(=O)n(CC2=NOCCC2)c1=O)c1ccc(F)cc1F and say whether its Plant response rating, Crabgrass is less than 8.
Output: not met

Task: Take the molecule CC(C)N(C(=O)n1oc(=O)n(CC(Cl)Cl)c1=O)c1ccc(F)cc1F and say whether its Plant response rating, Crabgrass is less than 8.
Output: not met

Task: Take the molecule CCOC(=O)C=CCn1c(=O)on(C(=O)N(c2ccc(F)cc2)C(C)C)c1=O and say whether its Plant response rating, Crabgrass is less than 8.
Output: met

Task: Take the molecule CCc1ccc(N(C(=O)n2oc(=O)n(-c3ccccc3C)c2=O)C(C)C)cc1 and say whether its Plant response rating, Crabgrass is less than 8.
Output: not met

Task: Take the molecule CC(=O)OCCCCn1c(=O)on(C(=O)N(c2ccc(F)cc2)C(C)C)c1=O and say whether its Plant response rating, Crabgrass is less than 8.
Output: met

Task: Take the molecule Cc1ccccc1-n1c(=O)on(C(=O)N(c2ccc3c(c2)CCC3)C(C)C)c1=O and say whether its Plant response rating, Crabgrass is less than 8.
Output: met

Task: Take the molecule CC(C)N(C(=O)n1oc(=O)n(-c2ccc(OC(F)(F)F)cc2)c1=O)c1ccc(F)cc1 and say whether its Plant response rating, Crabgrass is less than 8.
Output: not met

Task: Take the molecule CC(C)N(C(=O)n1oc(=O)n(-c2cccnc2)c1=O)c1ccc(F)cc1 and say whether its Plant response rating, Crabgrass is less than 8.
Output: met

Task: Take the molecule CC(C)=CCCC(C)=CCn1c(=O)on(C(=O)N(c2ccc(F)cc2)C(C)C)c1=O and say whether its Plant response rating, Crabgrass is less than 8.
Output: met

Task: Take the molecule CC(C)N(C(=O)n1oc(=O)n(C2CCCC2)c1=O)c1ccccc1 and say whether its Plant response rating, Crabgrass is less than 8.
Output: met

###

Can you tell me B. signalgrass plant response rating for the items I'm about to list?
# System: surinam grass
# Assay Notes: Test B pre/postemergence surinam grass
# Format: in vivo, Brachiaria decumbens
# Measurement Parameters: Postemergence, Rate 62 g/ha; scale 0 to 10, 0 is no effect, 10 is complete control
Give your answer as a number; write no unit.

Lab note: measured B. signalgrass plant response rating of CC(C)N(C(=O)n1oc(=O)n(-c2ccccc2C(F)(F)F)c1=O)c1ccc(F)cc1 [Compound 15] was 0

Lab note: measured B. signalgrass plant response rating of Cc1cccc(C(C)C)c1-n1c(=O)on(C(=O)N(c2ccc(F)cc2)C(C)C)c1=O [Compound 65] was 0

Lab note: measured B. signalgrass plant response rating of CC(C)N(C(=O)n1oc(=O)n(-c2c(Cl)cccc2Cl)c1=O)c1ccc(F)cc1 [Compound 19] was 0

Lab note: measured B. signalgrass plant response rating of CCN(CC)C(=O)n1oc(=O)n(-c2cc(Cl)cc(Cl)c2)c1=O [Compound 11] was 0

Lab note: measured B. signalgrass plant response rating of CC(C)N(C(=O)n1oc(=O)n(-c2ccccc2)c1=O)c1ccc(F)cc1 [Compound 38] was 0

Lab note: measured B. signalgrass plant response rating of CCCn1c(=O)on(C(=O)N(c2ccccc2)C(C)C)c1=O [Compound 92] was 3
